molecular target: UniProt:P22443; assay: In vivo reduction in serum estradiol in PMSG-primed rats after 6 hr at 5 mg/kg oral dose; assay type: functional, organism-based; design: dose 5 mg/kg, route oral; scale not given: the % may be the effect or the level left
Sequence (P22443 whole entry): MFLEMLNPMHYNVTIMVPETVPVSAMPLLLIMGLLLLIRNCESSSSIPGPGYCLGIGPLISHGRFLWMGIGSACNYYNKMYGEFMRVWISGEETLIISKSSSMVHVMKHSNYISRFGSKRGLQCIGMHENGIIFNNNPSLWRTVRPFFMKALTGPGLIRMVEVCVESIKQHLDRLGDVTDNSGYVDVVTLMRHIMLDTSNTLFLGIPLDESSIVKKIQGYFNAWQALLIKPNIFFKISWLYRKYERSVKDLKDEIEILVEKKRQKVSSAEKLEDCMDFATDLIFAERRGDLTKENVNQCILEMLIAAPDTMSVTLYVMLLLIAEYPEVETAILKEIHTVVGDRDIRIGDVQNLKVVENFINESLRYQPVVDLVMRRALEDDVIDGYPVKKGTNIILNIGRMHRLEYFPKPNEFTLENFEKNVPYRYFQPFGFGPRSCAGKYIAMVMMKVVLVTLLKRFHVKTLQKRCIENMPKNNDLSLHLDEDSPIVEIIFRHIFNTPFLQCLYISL
readout type: Control (%)
Your answer should be a plain number; it is taken to be in %.

The following compounds have reported results that may help.
CSC(C[C@]12CCC(=O)C=C1CCC1C2=CC[C@]2(C)C(=O)CCC12)SC (some centres not stated) | 13
CSCC[C@]12CCC(=O)C=C1CCC1C2CC[C@]2(C)C(=O)CCC12 (some centres not stated) | 16
C[C@]12CC=C3C(CCC4=CC(=O)CC[C@@]43CCSSc3ccc([N+](=O)[O-])cc3[N+](=O)[O-])C1CCC2=O (some centres not stated) | 32
C[C@]12CC=C3C(CCC4=CC(=O)CC[C@@]43CCSSc3ccccc3)C1CCC2=O (some centres not stated) | 62
C[C@]12CC=C3C(CCC4=CC(=O)CC[C@@]43CCSC#N)C1CCC2=O (some centres not stated) | 38

Ask | # lookup: Control of C[C@]12CC=C3C(CCC4=CC(=O)CC[C@@]43CCSCF)C1CCC2=O (some centres not stated)
Reply | 41

Ask | # lookup: Control of C#CCSCC[C@]12CCC(=O)C=C1CCC1C2=CC[C@]2(C)C(=O)CCC12 (some centres not stated)
Reply | 25
